Provenance of the data: PubChem BioAssay AID179

System: CEM cells HIV-1 protection, formazan growth assay
TEST_DESCRIPTION: NCI AIDS Antiviral Assay
MEASUREMENT_CONTEXT: measured here: growth of uninfected CEM cells
pIC50: −log10 of the molar value.
ATTRIBUTE_MEASURED: pIC50

[[record]]
molecule = "N#CCCC/C(=N\\O)C(=O)OCc1ccccc1"
target_of_assay = "CEM cells HIV-1 protection, formazan growth assay"
censoring_qualifier = "<"
observed = 3.70

[[record]]
molecule = "NC(CCC(=O)O)(C(=O)O)c1ccccc1 (stereo unspecified)"
target_of_assay = "CEM cells HIV-1 protection, formazan growth assay"
censoring_qualifier = "<"
observed = 3.70

[[record]]
molecule = "C/C=C/[C@@H](C(=O)OC)N1C(=O)c2ccccc2[C@H]1O"
target_of_assay = "CEM cells HIV-1 protection, formazan growth assay"
censoring_qualifier = "<"
observed = 3.70

[[record]]
molecule = "COc1cc2c(cc1OC)C(CCl)c1cc(OC)c(OC)cc1C=C2"
target_of_assay = "CEM cells HIV-1 protection, formazan growth assay"
censoring_qualifier = "<"
observed = 4.00

[[record]]
molecule = "COc1ccc(C2C(Cl)C(=O)N2NC(=O)Cc2ccccc2)cc1OC (stereo unspecified)"
target_of_assay = "CEM cells HIV-1 protection, formazan growth assay"
censoring_qualifier = "<"
observed = 4.02

[[record]]
molecule = "CC(=O)C1CC[C@@H]2[C@H](CC[C@]3(C)[C@@H](O)CC[C@@H]23)[C@H]1C(=O)O (stereo partly specified)"
target_of_assay = "CEM cells HIV-1 protection, formazan growth assay"
censoring_qualifier = "<"
observed = 3.70

[[record]]
molecule = "N#Cc1c2c(c(N3CCOCC3)n3c1nc1ccccc13)CCCC2"
target_of_assay = "CEM cells HIV-1 protection, formazan growth assay"
censoring_qualifier = "="
observed = 5.08

[[record]]
molecule = "Cc1ccc(-c2nn3c(-c4ccccc4)nnc3o2)cc1"
target_of_assay = "CEM cells HIV-1 protection, formazan growth assay"
censoring_qualifier = "="
observed = 3.88

[[record]]
molecule = "CN/N=C(/c1nc2ccc([N+](=O)[O-])cc2[nH]c1=O)C(O)c1ccc(C(O)/C(=N\\NC)c2nc3ccc([N+](=O)[O-])cc3[nH]c2=O)cc1 (stereo unspecified)"
target_of_assay = "CEM cells HIV-1 protection, formazan growth assay"
censoring_qualifier = "="
observed = 4.11

[[record]]
molecule = "COC(=O)c1c[nH]c2c1-c1cc(C(=O)OCc3ccccc3)n(S(=O)(=O)c3ccc(C)cc3)c1C(=O)C2=O"
target_of_assay = "CEM cells HIV-1 protection, formazan growth assay"
censoring_qualifier = "="
observed = 5.43

[[record]]
molecule = "COc1ccc(/C=C2\\C(=O)N(C(=O)Cc3ccccc3)N=C2C)cc1OC"
target_of_assay = "CEM cells HIV-1 protection, formazan growth assay"
censoring_qualifier = "<"
observed = 4.29

[[record]]
molecule = "O=C(NC(Cc1c[nH]c2ccccc12)C(=O)O)/C(=C/c1ccccc1)NC(=O)c1ccccc1 (stereo unspecified)"
target_of_assay = "CEM cells HIV-1 protection, formazan growth assay"
censoring_qualifier = "="
observed = 3.87

[[record]]
molecule = "O=C1c2ccccc2C(=O)[C@@]23O[C@@]12C1(Oc2cccc4cccc(c24)O1)[C@@H]1O[C@@H]1[C@@H]3O"
target_of_assay = "CEM cells HIV-1 protection, formazan growth assay"
censoring_qualifier = "="
observed = 5.94

[[record]]
molecule = "O=C(Oc1c(Br)cc(Br)cc1C(=O)Oc1ccccc1)C(=O)Oc1c(Br)cc(Br)cc1C(=O)Oc1ccccc1"
target_of_assay = "CEM cells HIV-1 protection, formazan growth assay"
censoring_qualifier = "="
observed = 4.51

[[record]]
molecule = "O=C(O)c1ccc(NC(NC(=O)C(C(F)(F)F)C(F)(F)F)(C(F)(F)F)C(F)(F)F)cc1"
target_of_assay = "CEM cells HIV-1 protection, formazan growth assay"
censoring_qualifier = "<"
observed = 3.70

[[record]]
molecule = "COc1ccc(/C=N/Nc2nc3ccccc3c(=O)n2-c2ccccc2)cc1"
target_of_assay = "CEM cells HIV-1 protection, formazan growth assay"
censoring_qualifier = "<"
observed = 3.70

[[record]]
molecule = "CN(c1ccccc1Cl)S(=O)(=O)c1ccccc1"
target_of_assay = "CEM cells HIV-1 protection, formazan growth assay"
censoring_qualifier = "="
observed = 4.15

[[record]]
molecule = "COC(=O)/C=C(\\C(=O)OC)c1c(C)c(C)c2c(C)cc(C)cc(C)c1-2"
target_of_assay = "CEM cells HIV-1 protection, formazan growth assay"
censoring_qualifier = "="
observed = 4.78

[[record]]
molecule = "S=c1nc(C(c2ccccc2)c2ccccc2)[nH][nH]1"
target_of_assay = "CEM cells HIV-1 protection, formazan growth assay"
censoring_qualifier = "<"
observed = 3.87

[[record]]
molecule = "CCCC(=O)n1[nH]c(=O)n(C(C)(C)C)c1=O"
target_of_assay = "CEM cells HIV-1 protection, formazan growth assay"
censoring_qualifier = "<"
observed = 3.70

[[record]]
molecule = "CCC[CH2][Sn]([CH2]CCC)([CH2]CCC)/[C](=C/[Si](C)(C)c1ccccc1)c1ccc2c(c1)OCO2"
target_of_assay = "CEM cells HIV-1 protection, formazan growth assay"
censoring_qualifier = "<"
observed = 5.46

[[record]]
molecule = "Oc1cc2ccccc2c2sc(-c3ccccc3)c(-c3ccccc3)[n+]12"
target_of_assay = "CEM cells HIV-1 protection, formazan growth assay"
censoring_qualifier = "="
observed = 4.75

[[record]]
molecule = "O=[N+]([O-])c1cc(C(F)(F)F)ccc1S(=O)(=O)N[C@@H]1CCCC[C@H]1NS(=O)(=O)c1ccc(C(F)(F)F)cc1[N+](=O)[O-]"
target_of_assay = "CEM cells HIV-1 protection, formazan growth assay"
censoring_qualifier = "="
observed = 5.40

[[record]]
molecule = "N#C/C(=C\\c1ccccc1)c1ccccc1[N+](=O)[O-]"
target_of_assay = "CEM cells HIV-1 protection, formazan growth assay"
censoring_qualifier = "="
observed = 4.90

[[record]]
molecule = "Cc1ccc(NC(=S)Nc2ccccc2C)nc1"
target_of_assay = "CEM cells HIV-1 protection, formazan growth assay"
censoring_qualifier = "="
observed = 6.11

[[record]]
molecule = "C[PH+](C)C.C[PH+](C)C.[C-]#[O+].[C-]#[O+].[C-]#[O+].[Fe]"
target_of_assay = "CEM cells HIV-1 protection, formazan growth assay"
censoring_qualifier = "="
observed = 4.31

[[record]]
molecule = "CCCCNC(=S)/N=C/c1c(O)cc(C)oc1=O"
target_of_assay = "CEM cells HIV-1 protection, formazan growth assay"
censoring_qualifier = "<"
observed = 3.70

[[record]]
molecule = "NC(=O)c1nnsc1-c1ccco1"
target_of_assay = "CEM cells HIV-1 protection, formazan growth assay"
censoring_qualifier = "<"
observed = 3.70

[[record]]
molecule = "O=C1c2ccccc2C2(O)Nc3c(ccc4ccccc34)C12O (stereo unspecified)"
target_of_assay = "CEM cells HIV-1 protection, formazan growth assay"
censoring_qualifier = "="
observed = 4.34

[[record]]
molecule = "COc1cc(OC)c2c(=O)c(OC)c(-c3ccc4c(c3)OCO4)oc2c1OC"
target_of_assay = "CEM cells HIV-1 protection, formazan growth assay"
censoring_qualifier = "<"
observed = 3.70

[[record]]
molecule = "N#Cc1c(C[n+]2ccccc2)c2ccccc2oc1=O"
target_of_assay = "CEM cells HIV-1 protection, formazan growth assay"
censoring_qualifier = "="
observed = 3.19

[[record]]
molecule = "O=c1[nH]cnc2c1ncn2C1SC(CO)C(O)C1O (stereo unspecified)"
target_of_assay = "CEM cells HIV-1 protection, formazan growth assay"
censoring_qualifier = "="
observed = 3.93

[[record]]
molecule = "O=C(/C=C/c1ccc(F)c(F)c1)OCCc1ccccc1"
target_of_assay = "CEM cells HIV-1 protection, formazan growth assay"
censoring_qualifier = "="
observed = 4.41

[[record]]
molecule = "Cc1ccc(C(=O)N2c3ccccc3N(C)n3cccc3C2CC(=O)O)cc1 (stereo unspecified)"
target_of_assay = "CEM cells HIV-1 protection, formazan growth assay"
censoring_qualifier = "="
observed = 3.83

[[record]]
molecule = "NC(=O)N/N=C1\\CCCCc2ccccc21"
target_of_assay = "CEM cells HIV-1 protection, formazan growth assay"
censoring_qualifier = "<"
observed = 3.70

[[record]]
molecule = "Nc1ccc2c(c1)C(=O)N(O)C2=O"
target_of_assay = "CEM cells HIV-1 protection, formazan growth assay"
censoring_qualifier = "="
observed = 3.12


----------
Items are presented alongside their recorded EC50.
Test system: CEM cells HIV-1 protection, formazan growth assay
TEST_DESCRIPTION: NCI AIDS Antiviral Assay
ATTRIBUTE_MEASURED: EC50

[[record]]
structure_smiles = "c1ccc(CN2COc3ccc4c5c(ccc4c3C2)OCN(Cc2ccccc2)C5)cc1"
observed = "> 2.45 µM"

[[record]]
structure_smiles = "NC(=O)C(=O)CC(=O)c1ccccc1NC1=CC(=O)C(=O)c2ccccc21"
observed = "> 20 µM"

[[record]]
structure_smiles = "CNc1ncc2nc(C(=O)O)c(=O)n(C)c2n1"
observed = "> 200 µM"

